Provide the reported RAR β (EFFICACY) of each item.
# system under test: RAR β (Homo sapiens, UniProt P10826)
# Sequence (P10826 whole entry): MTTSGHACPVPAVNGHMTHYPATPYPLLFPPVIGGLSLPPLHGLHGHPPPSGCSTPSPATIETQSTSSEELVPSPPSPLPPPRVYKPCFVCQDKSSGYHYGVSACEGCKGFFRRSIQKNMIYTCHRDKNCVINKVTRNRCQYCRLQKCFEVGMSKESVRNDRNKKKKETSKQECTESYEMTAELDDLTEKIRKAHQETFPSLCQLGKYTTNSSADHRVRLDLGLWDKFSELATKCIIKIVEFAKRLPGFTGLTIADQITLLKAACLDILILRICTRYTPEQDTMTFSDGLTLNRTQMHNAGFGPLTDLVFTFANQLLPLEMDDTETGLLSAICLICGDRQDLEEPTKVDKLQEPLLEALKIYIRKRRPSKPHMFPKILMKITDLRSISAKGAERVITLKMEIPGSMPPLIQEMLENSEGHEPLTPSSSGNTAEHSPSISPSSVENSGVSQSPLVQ
# assay summary: RAR β EC50/(efficacy)
# Format: cell-based
# details: value in brackets of cell EC50/(EFFICACY)/Kd
Give bare numbers.

Illustrative cases are given below, each with its answer.
{"molecule": "CCOC(=O)C1=CCC(C)(C)c2cc(C#Cc3ccc(CC(=O)O)c(F)c3)c(C)cc21", "RAR β (EFFICACY)": 30}
{"molecule": "C#Cc1c(C)c(C#Cc2ccc(CC(=O)O)cc2)cc(C(C)(C)C)c1OC(C)C", "RAR β (EFFICACY)": 55}
{"molecule": "CC(C(=O)O)c1ccc(C#Cc2ccc3c(c2)C(C)(C)CCC3N(C)C2CC2)cc1 (stereo not shown)", "RAR β (EFFICACY)": 5}

Read the next record carefully.
Report RAR β (EFFICACY), nothing else, for this molecule: CCC1(CC)CC(C)(C)c2cc(C#Cc3ccc(C(C)(C)C(=O)O)cc3)cc(C(C)C)c2O1
10

The origin of these recorded values is patent US7468391B2.
